From: patent US4820834A

# SYSTEM NAME: CCK receptor (pancreas) (Rattus norvegicus, UniProt P30551)
# Construct: The whole pancreas was dissected free of fat tissue and was homogenized; from tissue; host or cells: rat pancreas membranes (Sprague-Dawley)
# Sequence (P30551 whole entry): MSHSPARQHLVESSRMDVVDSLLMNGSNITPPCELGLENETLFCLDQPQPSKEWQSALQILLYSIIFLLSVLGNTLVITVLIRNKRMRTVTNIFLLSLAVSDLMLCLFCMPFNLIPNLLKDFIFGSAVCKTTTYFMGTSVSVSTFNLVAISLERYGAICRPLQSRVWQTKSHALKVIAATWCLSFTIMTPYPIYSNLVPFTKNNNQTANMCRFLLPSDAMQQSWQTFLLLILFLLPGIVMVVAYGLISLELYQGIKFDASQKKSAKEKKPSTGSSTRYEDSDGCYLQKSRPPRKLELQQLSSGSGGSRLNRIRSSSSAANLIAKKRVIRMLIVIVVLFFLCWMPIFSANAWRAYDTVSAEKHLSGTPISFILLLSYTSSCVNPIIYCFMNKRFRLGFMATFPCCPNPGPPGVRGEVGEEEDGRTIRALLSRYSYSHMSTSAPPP
# ASSAY DETAILS: CCK Receptor Binding (Pancreas): inhibition of ^125 I-CCK-33 binding
# Set-up: species or system Male Sprague-Dawley rats
# DETAILS: IC50 ^125 I-CCK Pancreas, rat pancreas membranes, ^125 I-CCK-33, 37° C., 30 minutes
ENDPOINT LABEL: IC50 (nM)
Your answer is read as nM, so omit the unit and give the number.

Worked set:
{"columns": ["COMPOUND", "IC50 / nM"],
 "data": [
  ["CCOC(=O)CN1C(=O)C(NC(=O)OCc2ccccc2)N=C(c2ccccc2)c2ccccc21 (stereo not shown) [Example 209]", 2200],
  ["O=C(NC1N=C(c2ccccc2F)c2ccccc2NC1=O)c1ccc2ccccc2n1 (racemic) [Example 116]", 300],
  ["O=C1Nc2ccccc2C(c2ccccc2F)=N[C@@H]1Cc1c[nH]c2ccccc12 [2 & 3]", 400]
]}

q: Kindly indicate its recorded IC50. Item: CN1C(=O)C(C(O)c2cn(C)c3ccccc23)N=C(c2ccccc2)c2ccccc21 (racemic) [Example 50a]
a: 15000

* * *

# SYSTEM NAME: CCK receptor (brain, cerebral cortex) (Cavia porcellus, UniProt H0VZC5)
# Construct: Cerebral cortex was dissected and used as a receptor source; from tissue; host or cells: guinea pig cerebral cortex membranes (male Hartley)
# Sequence (H0VZC5 1-426): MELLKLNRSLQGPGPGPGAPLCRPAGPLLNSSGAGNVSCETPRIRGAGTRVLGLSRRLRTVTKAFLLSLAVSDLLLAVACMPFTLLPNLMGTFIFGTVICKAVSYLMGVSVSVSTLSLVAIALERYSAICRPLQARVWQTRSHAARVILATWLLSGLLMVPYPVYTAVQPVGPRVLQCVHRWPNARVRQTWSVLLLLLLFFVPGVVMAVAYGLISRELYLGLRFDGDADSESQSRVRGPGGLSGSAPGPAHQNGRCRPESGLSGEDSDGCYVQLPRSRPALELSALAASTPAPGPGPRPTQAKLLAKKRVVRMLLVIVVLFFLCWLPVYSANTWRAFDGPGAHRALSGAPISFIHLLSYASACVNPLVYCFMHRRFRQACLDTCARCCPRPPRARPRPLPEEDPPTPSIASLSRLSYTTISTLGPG
# ASSAY DETAILS: biochemical
# Assay type: binding, Male Hartley guinea pigs
# DETAILS: IC50 ^125 I-CCK Brain, guinea pig cerebral cortex, ^125 I-CCK-33, 25° C., 2 hours
pIC50: recorded values
// returns pIC50 (minus log10 of molar concentration), number only

Sample answers from the record:
{"columns": ["COMPOUND", "pIC50"],
 "data": [
  ["CN1C(=O)C(NC(=O)Nc2cccc(F)c2)N=C(c2ccccc2)c2ccccc21 (stereo not shown)", 7.27],
  ["CCOC(=O)CN1C(=O)C(NC(=O)c2cc3ccccc3[nH]2)N=C(c2ccccc2F)c2ccccc21 (stereo not shown)", 6.66],
  ["Cn1c(C(=O)NC2N=C(c3ccccc3F)c3ccccc3NC2=O)cc2ccccc21 (racemic)", 5.15]
]}

q: // fetch pIC50; item: CN1C(=O)C(NC(=O)Nc2cccc([N+](=O)[O-])c2)N=C(c2ccccc2)c2ccccc21 (stereo not shown) ; system: CCK receptor (brain, cerebral cortex) (Cavia porcellus, UniProt H0VZC5)
a: 7.96
